- Target of assay: Cdk5/p25 (Homo sapiens, UniProt Q00535)
- Assay info: Cyclin-Dependent Kinase 5 (cdk5) Assay
- Assay type: biochemical
- Assay conditions: Table 1
- Protocol: Cyclin-Dependent Kinase 5 (cdk5) Assay Enzyme assays for IC50 determinations and kinetic evaluation were performed in 96-well filter plates (Millipore MAPH NOB 10). […] All components except histone and ATP were added to wells, and the plate was placed on a shaker for 5 minutes. […] The wells were then washed three times with 0.2 mL of 75 mM phosphoric acid and ^32P incorporation was determined with a beta plate counter (Wallac Inc, Gaithersburg, Md.).
Reported pIC50 by item:
Bear in mind: pIC50 is minus log10 of a mol/L concentration; give just that figure.

Example compounds with recorded pIC50:
O=c1ccc2cnc(Nc3ccc(F)c(F)c3)nc2n1C1CC2CCC1C2 (stereo not shown): 7.18
O=c1ccc2cnc(Nc3ccc(N4CCCC4)cc3)nc2n1C1CCCCC1: 6.95
CCn1c(=O)ccc2cnc(Nc3ccc(N4CCOCC4)cc3)nc21: 6.97

IN: Field: pIC50 (Cdk5/p25 (Homo sapiens, UniProt Q00535)). Entry: O=c1ccc2cnc(Nc3ccc(N4CCCCC4)cc3)nc2n1C1CCCCCC1
OUT: 6.82

###

- Target of assay: cdc2/cyclinB (Homo sapiens)
- Sequence (P06493 whole entry): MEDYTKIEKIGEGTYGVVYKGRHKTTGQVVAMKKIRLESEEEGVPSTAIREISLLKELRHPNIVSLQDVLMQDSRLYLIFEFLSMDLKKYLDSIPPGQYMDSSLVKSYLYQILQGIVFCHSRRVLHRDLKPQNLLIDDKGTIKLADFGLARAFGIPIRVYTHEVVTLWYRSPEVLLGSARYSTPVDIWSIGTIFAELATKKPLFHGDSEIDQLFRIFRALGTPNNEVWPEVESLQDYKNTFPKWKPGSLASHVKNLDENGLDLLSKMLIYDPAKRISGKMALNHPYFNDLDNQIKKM
- Sequence (P14635 whole entry, further chain): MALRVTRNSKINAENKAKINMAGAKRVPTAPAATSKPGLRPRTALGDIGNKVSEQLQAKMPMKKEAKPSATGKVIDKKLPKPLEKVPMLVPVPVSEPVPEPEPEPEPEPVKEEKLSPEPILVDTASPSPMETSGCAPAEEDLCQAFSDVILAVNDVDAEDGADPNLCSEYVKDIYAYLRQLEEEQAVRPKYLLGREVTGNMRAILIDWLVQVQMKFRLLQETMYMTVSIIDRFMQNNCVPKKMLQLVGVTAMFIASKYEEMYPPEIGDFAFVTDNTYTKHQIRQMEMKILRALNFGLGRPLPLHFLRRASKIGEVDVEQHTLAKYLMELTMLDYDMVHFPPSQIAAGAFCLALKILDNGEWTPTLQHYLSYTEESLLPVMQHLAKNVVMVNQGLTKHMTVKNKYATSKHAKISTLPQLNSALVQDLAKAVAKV
- Assay info: Cyclin-Dependent Kinase Assay cdc2/cyclinB
Reported IC50 by item:
The answer is to be given in nM; state only the numeric part.

O=c1ccc2cnc(Nc3ccc4c(c3)CCN4)nc2n1C1CCCC1: 2500
O=C1CSc2ccc(Nc3ncc4ccc(=O)n(CC5CC5)c4n3)cc2N1: 170
CC(C)n1c(=O)ccc2cnc(Nc3cc([N+](=O)[O-])ccc3F)nc21: 1400
CCC(CC)n1c(=O)ccc2cnc(Nc3cc(F)cc(F)c3)nc21: 180
CCC(CC)n1c(=O)ccc2cnc(Nc3ccc(Cl)c(C(F)(F)F)c3)nc21: 218

IN: Name the recorded IC50 for Cc1ccc(Nc2ncc3ccc(=O)n(C(C)C)c3n2)cc1NS(C)(=O)=O .
OUT: 400

IN: Name the recorded IC50 for CCCCn1c(=O)ccc2cnc(Nc3cc(OC)c(OC)c(OC)c3)nc21 .
OUT: 450

IN: Name the recorded IC50 for CCCn1c(=O)ccc2cnc(Nc3ccc(OC(F)(F)F)cc3)nc21 .
OUT: 270

IN: Name the recorded IC50 for CCC(C)n1c(=O)ccc2cnc(Nc3cc(F)cc(F)c3)nc21 (stereo not drawn) .
OUT: 250

IN: Name the recorded IC50 for CCCCn1c(=O)ccc2cnc(Nc3cc(F)cc(F)c3)nc21 .
OUT: 610

IN: Name the recorded IC50 for CC(C)n1c(=O)ccc2cnc(Nc3ccc(C(F)(F)F)cc3)nc21 .
OUT: 520

IN: Name the recorded IC50 for CN1CCN(c2ccc(Nc3ncc4ccc(=O)n(C5CC6CCC5C6)c4n3)cc2)CC1 (stereo not drawn) .
OUT: 160

###

Reported log10 IC50 by item:
- Target of assay: cdk2/cyclinE (Homo sapiens, UniProt P24941)
- Assay info: Cyclin-Dependent Kinase Assay cdk2/cyclinE
- Assay conditions: cdk2/E IC50
Hi team, quick reminder: these entries are log10 of IC50 (nM).

Cc1cc(C)cc(Nc2ncc3ccc(=O)n(C4CCCC4)c3n2)c1 [Example 544]: 1.91
O=c1ccc2cnc(Nc3ccc(F)c(C(F)(F)F)c3)nc2n1CC1CC1 [Example 570]: 1.80
CCCn1c(=O)ccc2cnc(Nc3ccc(OC)c(O)c3)nc21 [Example 336]: 2.08

IN: Field: log10 IC50 (cdk2/cyclinE (Homo sapiens, UniProt P24941)). Entry: CCCn1c(=O)ccc2cnc(Nc3ccc(F)c(Cl)c3)nc21 [Example 369]
OUT: 1.86

IN: Field: log10 IC50 (cdk2/cyclinE (Homo sapiens, UniProt P24941)). Entry: O=c1ccc2cnc(Nc3ccc4c(c3)CCC4)nc2n1CC1CC1 [Example 587]
OUT: 1.91

IN: Field: log10 IC50 (cdk2/cyclinE (Homo sapiens, UniProt P24941)). Entry: CCC(CC)n1c(=O)ccc2cnc(Nc3ccc(Cl)c(Cl)c3)nc21 [Example 511]
OUT: 2.20

IN: Field: log10 IC50 (cdk2/cyclinE (Homo sapiens, UniProt P24941)). Entry: CCCCn1c(=O)ccc2cnc(Nc3ccc(N(C)C(C)=O)cc3)nc21 [Example 370]
OUT: 3.11

IN: Field: log10 IC50 (cdk2/cyclinE (Homo sapiens, UniProt P24941)). Entry: CCCn1c(=O)ccc2cnc(Nc3ccc4cn[nH]c4c3)nc21 [Example 358]
OUT: 2.26

IN: Field: log10 IC50 (cdk2/cyclinE (Homo sapiens, UniProt P24941)). Entry: O=c1ccc2cnc(Nc3ccc(O)c(Cl)c3)nc2n1CC1CC1 [Example 567]
OUT: 1.21

IN: Field: log10 IC50 (cdk2/cyclinE (Homo sapiens, UniProt P24941)). Entry: CCCCn1c(=O)ccc2cnc(Nc3ccc(F)c(C(F)(F)F)c3)nc21 [Example 390]
OUT: 1.93

IN: Field: log10 IC50 (cdk2/cyclinE (Homo sapiens, UniProt P24941)). Entry: CCCn1c(=O)ccc2cnc(Nc3ccc(OC)c(F)c3)nc21 [Example 338]
OUT: 2.23

###

- Target of assay: cdk4/D (Homo sapiens)
- Sequence (P11802 whole entry): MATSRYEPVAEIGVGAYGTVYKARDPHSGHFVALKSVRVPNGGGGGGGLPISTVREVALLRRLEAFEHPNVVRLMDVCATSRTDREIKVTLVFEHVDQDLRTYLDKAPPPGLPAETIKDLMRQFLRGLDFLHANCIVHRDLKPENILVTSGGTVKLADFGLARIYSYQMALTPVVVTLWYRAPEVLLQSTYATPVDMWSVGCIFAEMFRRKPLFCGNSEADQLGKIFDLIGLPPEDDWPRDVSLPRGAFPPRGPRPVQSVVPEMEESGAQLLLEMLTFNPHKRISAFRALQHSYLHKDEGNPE
- Sequence (P24385 whole entry, further chain): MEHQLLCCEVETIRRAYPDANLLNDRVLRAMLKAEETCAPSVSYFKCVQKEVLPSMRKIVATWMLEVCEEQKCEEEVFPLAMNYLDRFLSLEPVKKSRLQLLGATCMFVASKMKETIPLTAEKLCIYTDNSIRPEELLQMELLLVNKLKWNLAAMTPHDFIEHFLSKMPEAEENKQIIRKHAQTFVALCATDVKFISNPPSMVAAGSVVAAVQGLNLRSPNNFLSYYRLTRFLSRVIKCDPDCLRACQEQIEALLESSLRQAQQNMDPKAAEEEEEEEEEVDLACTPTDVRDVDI
- Assay info: Cyclin-Dependent Kinase 4 (cdk4) Assay
- Type: biochemical
- Assay conditions: Table 1; read-out: cdk4/D IC50
Parameter measured: log10 of IC50 (log10 of the value in nM)
Hi team, quick reminder: these entries are log10 of IC50 (nM).

O=c1ccc2cnc(Nc3ccc(F)c(F)c3)nc2n1C1CC2CCC1C2 (stereo not drawn) [Example 220]: 2.06
O=c1ccc2cnc(Nc3ccc(N4CCCC(CCCO)C4)cc3)nc2n1C1CC2CCC1C2 (stereo not drawn) [Example 236]: 0.84
O=c1ccc2cnc(Nc3ccc(F)cc3)nc2n1C1CC2CCC1C2 (stereo not drawn) [Example 212]: 1.47

IN: Name the recorded log10 of IC50 for CN(C)CCCN1CCN(c2ccc(Nc3ncc4ccc(=O)n(C5CCCCC5)c4n3)cc2)CC1 [Example 144] .
OUT: 1.20

IN: Name the recorded log10 of IC50 for CN1CCN(c2ccc(Nc3ncc4ccc(=O)n(C5CC6CCC5C6)c4n3)cc2)CC1 (stereo not drawn) [Example 252] .
OUT: 0.79

IN: Name the recorded log10 of IC50 for O=c1ccc2cnc(Nc3ccc(N4CCC(CCCO)CC4)cc3)nc2n1C1CCCC1 [Example 197] .
OUT: 1.53

IN: Name the recorded log10 of IC50 for O=c1ccc2cnc(Nc3ccc(N4CCC(CCCN5CCOCC5)CC4)cc3)nc2n1C1CC2CCC1C2 (stereo not drawn) [Example 235] .
OUT: 1.57

IN: Name the recorded log10 of IC50 for CCN(CC)CCOc1ccc(Nc2ncc3ccc(=O)n(C4CCCC4)c3n2)cc1 [Example 117] .
OUT: 0.82

###

Reported IC50 by item:
- Target of assay: Cdk5/p25 (Homo sapiens)
- Assay info: Cyclin-Dependent Kinase 5 High Throughput Screening (cdk5-HTS) Assay
- Assay type: biochemical
- Assay conditions: high throughput screen
The answer is to be given in nM; state only the numeric part.

CCCn1c(=O)ccc2cnc(Nc3ccc(OC)c(OC)c3)nc21: 160
CCCn1c(=O)ccc2cnc(Nc3ccccc3)nc21: 145

IN: Name the recorded IC50 for CCC(CC)n1c(=O)ccc2cnc(Nc3cccc(O)c3)nc21 .
OUT: 83

IN: Name the recorded IC50 for CCCCn1c(=O)ccc2cnc(Nc3ccc(OC)c(F)c3)nc21 .
OUT: 150

###

- Target of assay: Cdk5/p25 (Homo sapiens, UniProt Q00535)
- Assay info: Cyclin-Dependent Kinase 5 High Throughput Screening (cdk5-HTS) Assay
- Format: biochemical
- Assay conditions: high throughput screen
Parameter measured: IC50 (nM)
The answer is to be given in nM; state only the numeric part.

Example molecules with recorded IC50:
CC1Nc2ccc(Nc3ncc4ccc(=O)n(CC5CC5)c4n3)cc2C1C (centres unmarked): 130
CC(C)n1c(=O)ccc2cnc(Nc3ccc(C(F)(F)F)cc3)nc21: 71
CCCn1c(=O)ccc2cnc(Nc3ccc(Cl)c(C(F)(F)F)c3)nc21: 112
CCCn1c(=O)ccc2cnc(Nc3ccc(Br)c(C(F)(F)F)c3)nc21: 114
CCn1c(=O)ccc2cnc(Nc3ccc4[nH]ncc4c3)nc21: 108

IN: Name the recorded IC50 for O=c1ccc2cnc(Nc3ccc(O)cc3F)nc2n1C1CCCC1 .
OUT: 145

IN: Name the recorded IC50 for CCCn1c(=O)ccc2cnc(Nc3ccc(Br)c(Cl)c3)nc21 .
OUT: 92

IN: Name the recorded IC50 for CCC(CC)n1c(=O)ccc2cnc(Nc3ccc(Br)c(C(F)(F)F)c3)nc21 .
OUT: 124

IN: Name the recorded IC50 for CCCCn1c(=O)ccc2cnc(Nc3ccc(OC)cc3)nc21 .
OUT: 130

IN: Name the recorded IC50 for CCC(C)n1c(=O)ccc2cnc(Nc3ccc(NC(=O)OC(C)(C)C)cc3)nc21 (centres unmarked) .
OUT: 64.5

IN: Name the recorded IC50 for O=c1ccc2cnc(Nc3ccc(OC(F)(F)F)cc3)nc2n1CC1CC1 .
OUT: 140
